# SYSTEM_NAME: Cytochrome P450 2C19 (Homo sapiens) (UniProt P33261)
# Sequence (P33261 whole entry, looked up): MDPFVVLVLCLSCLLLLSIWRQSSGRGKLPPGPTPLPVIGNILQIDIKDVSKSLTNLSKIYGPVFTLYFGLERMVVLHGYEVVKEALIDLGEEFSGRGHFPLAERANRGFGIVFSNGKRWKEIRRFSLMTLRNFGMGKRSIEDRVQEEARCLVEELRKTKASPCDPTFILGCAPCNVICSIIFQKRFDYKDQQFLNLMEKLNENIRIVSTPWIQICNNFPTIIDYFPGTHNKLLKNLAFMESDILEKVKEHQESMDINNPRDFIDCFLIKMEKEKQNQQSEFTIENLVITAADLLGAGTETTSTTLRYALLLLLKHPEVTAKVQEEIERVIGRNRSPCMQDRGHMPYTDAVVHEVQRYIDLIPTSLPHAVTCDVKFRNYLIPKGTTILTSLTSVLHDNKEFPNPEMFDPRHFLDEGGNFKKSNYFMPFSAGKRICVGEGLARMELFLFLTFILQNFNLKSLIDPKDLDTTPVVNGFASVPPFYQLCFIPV
# TEST_DESCRIPTION: blockers of cytochrome P450 2C19 activity – biochemical, luminescence, ADME assay, primary screen (AID 778);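 further: plate controls were negative control wells for no effect and 2.5 mM tranylcypromine positive control for full effect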
# ASSAY_CONTEXT: CYP2C19 Supersomes, luciferin-H EGE luminescence, 30 min; at 5 µM; stronger effect = higher value
Out of some 96,000 compounds screened, about 20,000 (21%) were called active. Not all results are given here.
Assign MET whenever inhibition does not fall below 30%; assign NOT MET whenever it does.

[[record]]
compound = "NC(N)=N/N=C/c1ccc(OCc2ccc(Cl)cc2Cl)cc1"
assigned_category = "NOT MET"

[[record]]
compound = "Cc1ccc(C(=O)N/C(=C/C=C/c2ccccc2)C(=O)NCc2ccco2)cc1"
assigned_category = "MET"

[[record]]
compound = "CCOC(=O)c1cnc(SC)nc1Sc1ccc(Cl)cc1Cl"
assigned_category = "NOT MET"

[[record]]
compound = "COc1cccc(C2/C(=C(/O)c3ccncc3)C(=O)C(=O)N2CCCN(C)C)c1 (stereo not given)"
assigned_category = "NOT MET"

[[record]]
compound = "Cc1nc(SCC(=O)c2ccccc2)c([N+](=O)[O-])[nH]1"
assigned_category = "NOT MET"

[[record]]
compound = "CNC(=O)/C(=C\\C=C\\c1ccccc1)NC(=O)c1ccc([N+](=O)[O-])cc1"
assigned_category = "NOT MET"

[[record]]
compound = "COc1ccc(C(C)=O)cc1COC(=O)Cn1cnc2ccccc2c1=O"
assigned_category = "NOT MET"

[[record]]
compound = "O=C(Cn1cnc2c(cnn2-c2ccccc2)c1=O)NCc1ccccc1"
assigned_category = "NOT MET"

[[record]]
compound = "O=C(Cn1nc(Cc2cccnc2)c2ccccc2c1=O)NCC1COc2ccccc2O1 (stereo not given)"
assigned_category = "MET"

[[record]]
compound = "CCOc1cc2c(cc1OCC)C(C(=O)O)C(c1ccc(OC)c(O)c1)N(C)C2=O (stereo not given)"
assigned_category = "NOT MET"

[[record]]
compound = "CCCCN(CC)CCNC(=O)c1[nH]c(C)c(C(C)=O)c1C"
assigned_category = "NOT MET"

[[record]]
compound = "O=C(Nc1ccccc1)c1ccccc1NC(=O)C(F)(F)F"
assigned_category = "MET"

[[record]]
compound = "c1cncc(-c2nnc3n2C2(CCCCC2)Cc2ccccc2-3)c1"
assigned_category = "NOT MET"

[[record]]
compound = "Cc1cc(-n2nc(C)cc2C)n2nc(C)c(-c3ccccc3)c2n1"
assigned_category = "NOT MET"

[[record]]
compound = "CCOC(=O)N1CCN(C(=O)c2n[nH]c(=O)c3ccccc23)CC1"
assigned_category = "NOT MET"

[[record]]
compound = "CCCCOC(=O)c1[nH]c(C)c(C(=O)OC)c1C"
assigned_category = "MET"

[[record]]
compound = "COc1ccc(Cn2c(=O)sc3ccccc32)cc1OC"
assigned_category = "MET"

[[record]]
compound = "CCOC(=O)CN1CC23C=CC(O2)C(C(=O)Nc2ccc(F)cc2)C3C1=O (stereo not given)"
assigned_category = "MET"

[[record]]
compound = "CC(C)c1nc2ccc(C(=O)O)cc2[nH]1"
assigned_category = "NOT MET"

[[record]]
compound = "CCN=C1SC(CC(=O)Nc2ccc(C)cc2)C(=O)N1CC (stereo not given)"
assigned_category = "MET"

[[record]]
compound = "Cc1ccc(C2CC2C(=O)NN)cc1 (stereo not given)"
assigned_category = "MET"

[[record]]
compound = "COc1cc(C2C(C(=O)c3sc(C)nc3C)=C(O)C(=O)N2CCN(C)C)cc(OC)c1OC (stereo not given)"
assigned_category = "MET"

[[record]]
compound = "Cc1ccc(NC2=NC(c3ccccc3)n3c(nc(C)cc3=O)N2)cc1 (stereo not given)"
assigned_category = "MET"

[[record]]
compound = "Cc1nnc(NC(=O)Cn2c(=O)sc3ccccc32)s1"
assigned_category = "MET"

[[record]]
compound = "COc1cc(C(=O)NC(=S)NCc2ccco2)cc(OC)c1OC"
assigned_category = "NOT MET"

[[record]]
compound = "COc1ccc(C2C(C(=O)N3CCN(c4ccc(OC)cc4)CC3)c3ccccc3C(=O)N2C)cc1 (stereo not given)"
assigned_category = "NOT MET"

[[record]]
compound = "O=C(c1ccc(O)cc1)c1ccc(C(=O)O)c(C(=O)O)c1"
assigned_category = "NOT MET"

[[record]]
compound = "O=C(Cc1c(O)c2ccccc2[nH]c1=O)NCc1ccccc1"
assigned_category = "NOT MET"

[[record]]
compound = "Cc1ccc(NC(=O)CCN2CCc3ccccc3C2)cc1"
assigned_category = "MET"

[[record]]
compound = "Cc1ccc(Oc2ccc3c(c2)C(=O)N(c2cccc4cccnc24)C3=O)cc1"
assigned_category = "NOT MET"

[[record]]
compound = "O=c1c2ccccc2nc2n1C1(CCCCC1)Cc1ccccc1-2"
assigned_category = "MET"

[[record]]
compound = "CC(C)Oc1ccc(CCc2n[nH]c(=S)n2Cc2ccccc2)cc1"
assigned_category = "NOT MET"

[[record]]
compound = "COc1ccc(COC(=O)c2n[nH]c3ccccc23)cc1F"
assigned_category = "MET"

[[record]]
compound = "CCN(CC)P(=O)(/C(Cl)=C\\Nc1c(C)n(C)n(-c2ccccc2)c1=O)N(CC)CC"
assigned_category = "NOT MET"

[[record]]
compound = "O=C(CN1C(=O)C2C3C=CC(C3)C2C1=O)Nc1nc(-c2ccccn2)cs1 (stereo not given)"
assigned_category = "NOT MET"


----------
# SYSTEM_NAME: Cytochrome P450 2C19 (Homo sapiens)
# TEST_DESCRIPTION: blockers of cytochrome P450 2C19 activity – biochemical, luminescence, ADME assay, primary screen (AID 778);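 further: plate controls were negative control wells for no effect and 2.5 mM tranylcypromine positive control for full effect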
# ASSAY_CONTEXT: CYP2C19 Supersomes, luciferin-H EGE luminescence, 30 min; at 5 µM; stronger effect = higher value
In all, about 96,000 compounds went through this assay and about 20,000 (21%) were called active. Not all results are given here.
ENDPOINT_LABEL: inhibition (%)

[[record]]
compound = "CC(=NC1CCN(Cc2ccccc2)CC1)c1c(O)[nH]c(=O)[nH]c1=O"
measurement = -7.4

[[record]]
compound = "COC(=O)COc1ccc(S(=O)(=O)Nc2ccc(NC(C)=O)cc2)cc1"
measurement = 69.1

[[record]]
compound = "CCN1CCCC1CNC(=O)Cn1cnc2ccc(S(=O)(=O)N3CCC(C)CC3)cc2c1=O (centres undefined)"
measurement = -0.8

[[record]]
compound = "CCOC(=O)C(CCOc1cccc(CC)c1)C(=O)OCC"
measurement = 42

[[record]]
compound = "O=c1c(-c2ccc3c(c2)OCCO3)c(C(F)(F)F)oc2cc(O)cc(O)c12"
measurement = 25

[[record]]
compound = "CCOC(=O)c1c(C2CC2)csc1NC(=O)CSCc1c(C)noc1C"
measurement = 64

[[record]]
compound = "CCCCCCNCCn1cnc2c(N)ncnc21"
measurement = -9.3

[[record]]
compound = "N#CC1=C(SCc2ccc(C#N)cc2)N=C(N)C(c2nc(-c3ccccc3)cs2)C12CCCCC2 (centres undefined)"
measurement = 92.9

[[record]]
compound = "Cc1ccccc1CSc1nnc(-c2ccccn2)n1N"
measurement = 43.6

[[record]]
compound = "O=C(NC1CC1)c1ccc2c(c1)NC(=O)c1ccccc1S2"
measurement = -13.6

[[record]]
compound = "O=C(Nc1c(-c2ccccc2)nc2c(Br)cc(Br)cn12)c1ccco1"
measurement = 5.9

[[record]]
compound = "CCOC(=O)c1cc2cc(-c3c(C(=O)OCC)oc4cc(O)cc(O)c4c3=O)ccc2o1"
measurement = 69.8

[[record]]
compound = "C#CCN1C(=O)C(O)(CC(=O)c2cc(OC)ccc2OC)c2ccccc21 (centres undefined)"
measurement = 51.5

[[record]]
compound = "COc1ccc(S(=O)(=O)Nc2ccc3oc(C)c(C(C)=O)c3c2)cc1"
measurement = 67.4


----------
# SYSTEM_NAME: Cytochrome P450 2C19 (Homo sapiens) (UniProt P33261)
# TEST_DESCRIPTION: blockers of cytochrome P450 2C19 activity – biochemical, luminescence, ADME assay, primary screen (AID 778);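 further: plate controls were negative control wells for no effect and 2.5 mM tranylcypromine positive control for full effect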
# ASSAY_CONTEXT: CYP2C19 Supersomes, luciferin-H EGE luminescence, 30 min; at 5 µM
Among all 96,000 compounds or so, about 20,000 (21%) were called active.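 The calls were made as follows: active = CYP2C19 inhibition above a set limit at 5 µM in the primary screen (cut at about 50% in these data); inactive = the rest.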 The list is a sample of the results.
Outcomes: Yes (active), No (inactive)

[[record]]
compound = "CC1CCCN(Cc2nc3c(c(=O)n(C)c(=O)n3C)n2CC(=O)c2ccccc2)C1 (centres undefined)"
assigned_category = "No"

[[record]]
compound = "CCOC(=O)c1cc(NC(=O)SCC(=O)O)c(C)nc1C"
assigned_category = "No"

[[record]]
compound = "O=C(CN1C(=O)C2C3C=CC(C3)C2C1=O)NCC1COc2ccccc2O1 (centres undefined)"
assigned_category = "No"

[[record]]
compound = "O=C(NCc1ccc(Cl)c(Cl)c1)c1cccnc1"
assigned_category = "Yes"

[[record]]
compound = "N#Cc1c(NC(=O)CCCN2C(=O)c3ccccc3C2=O)oc(-c2ccccc2)c1-c1ccccc1"
assigned_category = "No"

[[record]]
compound = "Cc1ccc(NS(=O)(=O)c2c(C)[nH]c(=O)[nH]c2=O)cc1C"
assigned_category = "No"

[[record]]
compound = "O=c1[nH]c(-c2ccccc2)c(-c2ccccc2)[nH]1"
assigned_category = "No"

[[record]]
compound = "Cn1nnc2cc(C(=O)NCCC3=CCCCC3)ccc21"
assigned_category = "No"

[[record]]
compound = "CCCCN(C)Cc1c(C)[nH]c2ccc(Cl)cc2c1=O"
assigned_category = "No"

[[record]]
compound = "CCCn1c(SCC(=O)Nc2cccc(C(=O)OCC)c2)nnc1-c1ccoc1C"
assigned_category = "No"

[[record]]
compound = "COc1ccc(Nc2ncc(C(=O)N3CCN(c4ccccc4OC)CC3)c3ccccc23)cc1"
assigned_category = "Yes"

[[record]]
compound = "COc1ccc2oc(=O)c(C(=O)N3CCN(c4ccccc4F)CC3)cc2c1"
assigned_category = "No"

[[record]]
compound = "CCN1C(=O)/C(=C\\N2CCN(c3ccccc3)CC2)SC1=S"
assigned_category = "No"

[[record]]
compound = "O=C1CN(c2nc(-c3ccccc3)c3cc(Br)ccc3n2)c2ccccc2N1"
assigned_category = "No"

[[record]]
compound = "S=C1NC(c2ccccc2)=NCN1c1ccc(Br)cc1"
assigned_category = "Yes"

[[record]]
compound = "COc1ccc2nc(NC(=O)c3ccc(Br)s3)sc2c1"
assigned_category = "No"

[[record]]
compound = "O=C(Nn1cc(C(=O)N2CCN(c3ccccc3F)CC2)c2ccccc2c1=O)c1cnccn1"
assigned_category = "No"

[[record]]
compound = "COc1ccccc1NC(=O)CSc1nnc(Cn2nnc(-c3ccccc3)n2)n1-c1ccccc1"
assigned_category = "No"

[[record]]
compound = "CN1CCN(CC(=O)C23CC4CC(CC(C4)C2)C3)CC1"
assigned_category = "No"


Just for reference, PubChem BioAssay AID778 is where these values come from.
